- Procedure Summary: Terminal half life in Sprague-Dawley rat at 2 mg/kg, iv administered as single dose by HPLC/MS/MS method
- Assay type: ADME, organism-based
- Assay Setup: in vivo, read-out: beta t1/2 (converted)
Property Measured: half-life (h)

Smiles Record	half-life [h]
Cc1cc(/C=C/c2cc3ccc(O)cc3nc2Cl)cc(C)c1O	2.75
Cc1cc(C#Cc2ccc3cc(N)ccc3n2)cc(C)c1O	2.71

* * *

- Procedure Summary: Tmax in Sprague-Dawley rat at 5 mg/kg, po administered as single dose via oral gavage by HPLC/MS/MS method
- Assay type: ADME, organism-based
- Assay Setup: in vivo
Property Measured: Tmax (h)

1: Cc1cc(C#Cc2ccc3cc(N)ccc3n2)cc(C)c1O
2: Cc1cc(/C=C/c2cc3ccc(O)cc3nc2Cl)cc(C)c1O
Would you kindly point out which of 1 and 2 has the smaller Tmax figure? Indicate your choice by writing its label.
2
